The origin of these recorded values is ChEMBL document CHEMBL5331110.

- Assayed target: Glycogen synthase kinase-3 beta (Homo sapiens)
- Sequence (P49841 whole entry): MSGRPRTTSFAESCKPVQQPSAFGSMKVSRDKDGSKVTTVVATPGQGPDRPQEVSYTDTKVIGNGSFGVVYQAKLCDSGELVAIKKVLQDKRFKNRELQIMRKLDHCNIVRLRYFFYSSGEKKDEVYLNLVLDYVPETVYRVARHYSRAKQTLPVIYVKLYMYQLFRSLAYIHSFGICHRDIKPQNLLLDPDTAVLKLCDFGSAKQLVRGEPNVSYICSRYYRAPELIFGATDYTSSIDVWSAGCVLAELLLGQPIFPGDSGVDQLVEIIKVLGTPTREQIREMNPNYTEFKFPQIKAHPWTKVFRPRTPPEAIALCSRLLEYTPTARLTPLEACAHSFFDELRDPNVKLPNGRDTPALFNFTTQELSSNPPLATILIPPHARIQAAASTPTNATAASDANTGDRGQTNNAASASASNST
Listed here: items and their measured IC50.
Give the number; nM is assumed, so skip it.

[[record]]
query_smiles = "Cc1cc(Nc2ncc(C)c(N3CCN(CC#N)[C@@H](C)C3)n2)sn1"
quantitative_result = 2200

[[record]]
query_smiles = "Cc1cnc(Nc2cnn(C)c2)nc1-c1cnn([C@H](CC#N)C2CCCC2)c1"
quantitative_result = 395


Now, please, on to the next compound.
Which IC50 is listed for Cc1cnc(Nc2cnn(C)c2)nc1N1CC2CCCC(C1)N2CC#N ?
36400

* * *

A short record of pIC50 observed with Aurora kinase B (Homo sapiens) follows.
Sequence (Q96GD4 whole entry): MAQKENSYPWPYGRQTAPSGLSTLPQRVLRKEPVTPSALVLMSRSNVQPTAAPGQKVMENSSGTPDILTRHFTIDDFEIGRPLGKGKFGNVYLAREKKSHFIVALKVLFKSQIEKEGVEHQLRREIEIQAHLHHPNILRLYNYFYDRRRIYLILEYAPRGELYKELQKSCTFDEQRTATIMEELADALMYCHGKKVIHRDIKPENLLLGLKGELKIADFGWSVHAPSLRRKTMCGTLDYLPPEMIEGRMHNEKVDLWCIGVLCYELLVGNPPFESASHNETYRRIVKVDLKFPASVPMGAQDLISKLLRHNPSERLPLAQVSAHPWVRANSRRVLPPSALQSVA
The scale used: pIC50 is minus the common logarithm of the concentration in molar units.

[[record]]
compound = "Cc1cc(Nc2ncc(C)c(N3CC(CCC#N)C3)n2)sn1"
quantitative_result = 8.52

[[record]]
compound = "Cc1cc(Nc2ncc(C)c(N3CC4CCCC(C3)N4CCC#N)n2)sn1"
quantitative_result = 8.60

[[record]]
compound = "Cc1cc(Nc2ncc(C)c(N3CCN(CC#N)C(C)C3)n2)sn1 (centres undefined)"
quantitative_result = 8.52


Which pIC50 is listed for Cc1cc(Nc2ncc(C)c(N3CC(O)(C4CC4)C3)n2)sn1 ?
9.01
